Value source: patent US20240252677A1

Answer each item with its documented Number of vesicle layers: 6 (count of vesicles).
# Assay remarks: Cryo-TEM of dendrimersomes from glycerol-JDs, number of vesicle layers
# Type: physicochemical
# Applied conditions: vesicles with 6 layers
One number for each entry.

• CCCCCCCCCCCCOc1cc(OCCCCCCCCCCCC)cc(C(=O)OCC(C)(COC(=O)c2cc(OCCCCCCCCCCCC)cc(OCCCCCCCCCCCC)c2)C(=O)OC[C@@H](COC(=O)c2cc(OCCOCCOCCOC)c(OCCOCCOCCOC)c(OCCOCCOCCOC)c2)OC(=O)c2cc(OCCOCCOCCOC)c(OCCOCCOCCOC)c(OCCOCCOCCOC)c2)c1 [Compound 2R, (3,5)-12G1-BMPA-GC-(R)-(3,4,5)-3EO-G1] = 2

Proceed to the following item.
Inquiry: Form field: reported Number of vesicle layers: 6 (count of vesicles) of CCCCCCCCCCCCOc1cc(OCCCCCCCCCCCC)cc(C(=O)OC[C@H](COC(=O)C(C)(COC(=O)c2cc(OCCOCCOCCOC)c(OCCOCCOCCOC)c(OCCOCCOCCOC)c2)COC(=O)c2cc(OCCOCCOCCOC)c(OCCOCCOCCOC)c(OCCOCCOCCOC)c2)OC(=O)c2cc(OCCCCCCCCCCCC)cc(OCCCCCCCCCCCC)c2)c1 [Compound 1R, (3,5)-12G1-GC-(R)-BMPA-(3,4,5)-3EO-G1]
Reply text: 0

###

# Assay remarks: Stability of DNPs by DLS after storage at 5° C.
# Assay type: physicochemical
# Design: key: Excellent: the original sizes and distribution types remained almost the same after storage; Good: the original sizes and distribution types changed slightly (size difference was less than 100 nm) or the original size remained almost the same but the DLS curve showed more size distributions after storage
# Applied conditions: after 75 days at 5° C.
Property: Ranking of stability

• CCCCCCCCCCCCCCCOc1cc(COC(=O)CCCN2CCN(C)CC2)cc(OCCCCCCCCCCC)c1 [IAJD 118] = Excellent
• CCCCCCCCCCCCOc1cc(COC(=O)c2cc(OCCOCCOCCCC(=O)CCCN3CCCCC3)c(OCCOCCOCCOCc3ccccc3)c(OCCOCCOCCOC(=O)CCCN3CCCCC3)c2)cc(OCCCCCCCCCCCC)c1 [IAJD 110] = Excellent
• CCCCCCCCCCCOc1cc(COC(=O)c2cc(OCCOCCOCCCC(=O)CCCN3CCCCC3)c(OCCOCCOCCOCc3ccccc3)c(OCCOCCOCCOC(=O)CCCN3CCCCC3)c2)cc(OCCCCCCCCCCC)c1 [IAJD 111] = Excellent
• CCCCCCCCCCCOc1cc(COC(=O)CCCN2CCN(C)CC2)cc(OCCCCCCCCCC)c1 [IAJD 114] = Good

###

# Assay remarks: Dimensions (size, PDI) of DNPs co-assembled from IAJDs and Luc-mRNA by DLS
# Format: physicochemical
# Applied conditions: Table 17; DNPs used in vivo, IAJD 4 mg/mL, Luc-mRNA 0.10 mg/mL, acetate pH 4.0
Assign class by PDI: not lower than 0.3 means True; lower than 0.3 means False.

* CCCCCCCCCCCCCCCCCCOc1cc(COC(=O)CCCN2CCN(CCO)CC2)cc(OCCCCCCCCCCCCC)c1 | False
* CCCCCCCCCCCCCCCCCCOc1cc(COC(=O)CCCN2CCN(C)CC2)cc(OCCCCCCCCCCCCCCC)c1 | False
* CCCCCCCCCCCCOc1cc(COC(=O)CCCN2CCN(CCO)CC2)cc(OCCCCCCCCCCCC)c1 | True
* CCCCCCCCCCCCCCOc1cc(COC(=O)CCCN2CCN(C)CC2)cc(OCCCCCCCCCCCCC)c1 | False
* CCCCCCCCCCCCCCCCCOc1cc(CNC(=O)c2cc(OCCOCCOCCOC(=O)CCCN3CCCCC3)c(OCCCOCOCCOCc3ccccc3)c(OCCOCCOCCOC(=O)CCCN3CCCCC3)c2)cc(OCCCCCCCCCCCCCCCCC)c1 | False

Okay, now this molecule:
Inquiry: Does the molecule CCCCCCCCCCCOc1cc(COC(=O)CCCN2CCN(C)CC2)cc(OCCCCCCCCCC)c1 have recorded PDI that is 0.3 or more?
Reply text: True
